- Tested on: 494315-158-R-J1-PDC complex spheroid growth, percent test/control
- Experiment: Anticancer human tumor 494315-158-R-J1-PDC patient-derived soft tissue sarcoma cell line growth inhibition [Asc]
- Test Context: curve of first compound; second compound 0.949 µM
Endpoint Name: IC50

compound="Cn1ncnc1[C@H]1c2n[nH]c(=O)c3cc(F)cc(c23)N[C@@H]1c1ccc(F)cc1 + CCN1C(C(=O)NC23CCC(C(=O)O)(CC2)CC3)C(c2cccc(Cl)c2F)C2(C(=O)Nc3cc(Cl)ccc32)C12CCCCC2" endpoint_result="> 0.1 µM"
compound="O=C(c1cc(Cc2n[nH]c(=O)c3ccccc23)ccc1F)N1CCN(C(=O)C2CC2)CC1 + CCN1C(C(=O)NC23CCC(C(=O)O)(CC2)CC3)C(c2cccc(Cl)c2F)C2(C(=O)Nc3cc(Cl)ccc32)C12CCCCC2" endpoint_result="> 10 µM"
compound="NC1CCC(NC2CC2c2ccccc2)CC1 (centres undefined) + CCN1C(C(=O)NC23CCC(C(=O)O)(CC2)CC3)C(c2cccc(Cl)c2F)C2(C(=O)Nc3cc(Cl)ccc32)C12CCCCC2" endpoint_result="> 0.1 µM"

Now, please, on to the next compound.
Req: Note down IC50 recorded for C=CC(=O)N1CCN(c2nc(=O)n(-c3c(C)ccnc3C(C)C)c3nc(-c4c(O)cccc4F)c(F)cc23)C(C)C1 (centres undefined) + CCN1C(C(=O)NC23CCC(C(=O)O)(CC2)CC3)C(c2cccc(Cl)c2F)C2(C(=O)Nc3cc(Cl)ccc32)C12CCCCC2
Resp: > 10 µM

---

- Tested on: 494315-158-R-J1-PDC complex spheroid growth, percent test/control
- Experiment: Anticancer human tumor 494315-158-R-J1-PDC cell line growth inhibition [Asc];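 further: compound exposure lasted seven days after spheroids formed for three days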
- Test Context: curve of compound
Listed here: items and their measured IC50.

Below are worked cases with known answers.
compound="CCN1C(C(=O)NC23CCC(C(=O)O)(CC2)CC3)C(c2cccc(Cl)c2F)C2(C(=O)Nc3cc(Cl)ccc32)C12CCCCC2 (stereo not drawn)" test_system="494315-158-R-J1-PDC complex spheroid growth, percent test/control" endpoint_name=IC50 endpoint_result="> 3 µM"
compound="C#Cc1c(F)ccc2cc(O)cc(-c3ncc4c(N5CC6CCC(C5)N6)nc(OCC56CCCN5CC(F)C6)nc4c3F)c12 (stereo not drawn)" test_system="494315-158-R-J1-PDC complex spheroid growth, percent test/control" endpoint_name=IC50 endpoint_result="> 10 µM"

Now, please, on to the next compound.
Req: Note down IC50 recorded for O=C(c1cc(Cc2n[nH]c(=O)c3ccccc23)ccc1F)N1CCN(C(=O)C2CC2)CC1
Resp: > 10 µM

---

- Test system: 494315-158-R-J1-PDC complex spheroid growth, percent test/control
- Experiment: Anticancer human tumor 494315-158-R-J1-PDC cell line growth inhibition [Asc];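 further: compound exposure lasted seven days after spheroids formed for three days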
- Test Context: second compound 0.1 µM; first compound 0.316 µM; stronger effect = lower value
- Text: Multicellular complex tumor spheroid response to apoptosis pathway targeting inhibitors Alrizomadlin, Pelcitoclax, and Dasminapant in combination with a variety of drugs and investigational agents in selected tumor cell lines […] Compounds. […] If the clinical Cmax for an agent had not been determined, the highest concentration tested was 10 microM. […]
Endpoint Name: viability, T/C (%)
All answers are understood in %, so give the number only.

Below are worked cases with known answers.
compound="C=C(F)C(=O)N1CCN(c2nc(OCC3CCCN3C)nc3c2CCN(c2cccc4cccc(Cl)c24)C3)CC1CC#N (centres undefined) + CNC(C)C(=O)NC1CN(S(=O)(=O)c2cccc(S(=O)(=O)N3CCC4CCC(C(=O)NC(c5ccccc5)c5ccccc5)N4C(=O)C(NC(=O)C(C)NC)C3)c2)CCC2CCC(C(=O)NC(c3ccccc3)c3ccccc3)N2C1=O" endpoint_result=52.3
compound="COc1c(OCCCN2CCOCC2)ccc2c3n(c(=NC(=O)c4cnc(N)nc4)nc12)CCN3 + Cc1c(S(C)(=O)=O)c(-c2cc(F)cc(N3CCN(c4ccc(NS(=O)(=O)c5ccc(NC(CCN6CCC(C(=O)OCCCP(=O)(O)O)CC6)CSc6ccccc6)c(S(=O)(=O)C(F)(F)F)c5)cc4)CC3)c2)c(-c2ccc(Cl)cc2)n1C(C)C" endpoint_result=18
compound="C#Cc1c(F)ccc2cc(O)cc(-c3ncc4c(N5CC6CCC(C5)N6)nc(OCC56CCCN5CC(F)C6)nc4c3F)c12 (centres undefined) + CNC(C)C(=O)NC1CN(S(=O)(=O)c2cccc(S(=O)(=O)N3CCC4CCC(C(=O)NC(c5ccccc5)c5ccccc5)N4C(=O)C(NC(=O)C(C)NC)C3)c2)CCC2CCC(C(=O)NC(c3ccccc3)c3ccccc3)N2C1=O" endpoint_result=65.3

Req: Note down viability, T/C recorded for O=C(c1cc(Cc2n[nH]c(=O)c3ccccc23)ccc1F)N1CCN(C(=O)C2CC2)CC1 + Cc1c(S(C)(=O)=O)c(-c2cc(F)cc(N3CCN(c4ccc(NS(=O)(=O)c5ccc(NC(CCN6CCC(C(=O)OCCCP(=O)(O)O)CC6)CSc6ccccc6)c(S(=O)(=O)C(F)(F)F)c5)cc4)CC3)c2)c(-c2ccc(Cl)cc2)n1C(C)C
Resp: 69.2

Req: Note down viability, T/C recorded for O=C(c1cc(Cc2n[nH]c(=O)c3ccccc23)ccc1F)N1CCN(C(=O)C2CC2)CC1 + CNC(C)C(=O)NC1CN(S(=O)(=O)c2cccc(S(=O)(=O)N3CCC4CCC(C(=O)NC(c5ccccc5)c5ccccc5)N4C(=O)C(NC(=O)C(C)NC)C3)c2)CCC2CCC(C(=O)NC(c3ccccc3)c3ccccc3)N2C1=O
Resp: 46.3

Sourced from PubChem BioAssay AID1963420
